metric-name: melting point

Would you be so kind as to report melting point for each listed record?
1. Cc1ccc(-c2nc(N)nc3c2ncn3Cc2ccccc2F)nc1 [Example 243]
2. Cn1cnc(S(=O)(=O)Nc2ccccc2Cn2cnc3c(-c4ccco4)nc(N)nc32)c1 [Example 235]

Marked response:
299.8 °C
253.1 to 257.1 °C

---

Please respond with reported melting point for every item in the list.

A selection of reference data follows.
CCOC(=O)Cn1cnc2c(-c3ccco3)nc(-c3ccco3)nc21 : 314 °C
CSc1nc(-c2ccco2)c2nc[nH]c2n1 : 239.5 to 239.9 °C
Cc1ccc(Cn2cnc3c(-c4ccc(C)o4)nc(N)nc32)cc1 : 210 to 220 °C (dec.)

Would you be so kind as to report melting point for each listed record?
1. Nc1nc(-c2ccco2)c2ncn(CC(=O)Nc3ccncc3)c2n1
2. CN(Cc1ccccc1)C(=O)Cn1cnc2c(-c3ccco3)nc(N)nc21
3. OCCNc1nc(-c2ccco2)c2nc[nH]c2n1
4. Cc1csc(-c2nc(N)nc3c2ncn3Cc2ccccc2F)n1

Marked response:
["281.3 to 283.2 °C", "224 to 224.1 °C", "227.1 to 228.1 °C", "259.2 °C"]

Would you be so kind as to report melting point for each listed record?
1. Cc1ccccc1NC(=O)Cn1cnc2c(-c3ccco3)nc(N)nc21
2. Nc1nc(-c2ccco2)c2ncn(Cc3cccc(F)c3)c2n1

Marked response:
299.2 to 299.3 °C
218.2 to 218.5 °C

---

- measured-target: UniProt:P29274
- Sequence (P29274 whole entry): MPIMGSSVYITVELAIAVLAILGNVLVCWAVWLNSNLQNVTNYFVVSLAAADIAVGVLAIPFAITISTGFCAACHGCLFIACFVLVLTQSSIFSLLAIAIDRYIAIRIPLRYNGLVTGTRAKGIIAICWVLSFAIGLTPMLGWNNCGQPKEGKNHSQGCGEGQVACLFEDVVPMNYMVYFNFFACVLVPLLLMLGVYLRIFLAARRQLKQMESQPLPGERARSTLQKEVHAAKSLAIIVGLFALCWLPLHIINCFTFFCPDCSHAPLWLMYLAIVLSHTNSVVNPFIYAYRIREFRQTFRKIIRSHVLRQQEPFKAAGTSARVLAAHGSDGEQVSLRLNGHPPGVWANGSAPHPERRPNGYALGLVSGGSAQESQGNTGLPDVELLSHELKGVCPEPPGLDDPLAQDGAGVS
- protocol-description: Binding affinities at hA2A receptors, displacement of [3H]-CGS 21680
metric-name: Ki (nM)
Answers are plain numbers, in nM.

A selection of reference data follows.
Cc1ccc(Cn2cnc3c(-c4ccc(C)o4)nc(N)nc32)cc1 : 6
Cc1csc(-c2nc(N)nc3c2ncn3Cc2ccccc2F)n1 : 7
Cc1cccc(Cn2cnc3c(-c4ccco4)nc(N)nc32)n1 : 35
Cc1ccc(Cn2cnc3c(-c4ccco4)nc(N)nc32)cc1 : 9
CCCCNC(=O)n1cnc2c(-c3ccco3)nc(N)nc21 : 7
Nc1nc(-c2ccco2)c2ncn(Cc3ccc(Cl)s3)c2n1 : 7
COc1ccc(CNC(=O)n2cnc3c(-c4ccco4)nc(N)nc32)cc1 : 4
Nc1nc(-c2ccco2)c2ncn(S(=O)(=O)c3ccc(Br)cc3)c2n1 : 8
Nc1nc(-c2ccco2)c2ncn(Cc3cccc(Cl)c3)c2n1 : 6
Nc1nc(-c2ccco2)c2ncn(S(=O)(=O)/C=C/c3ccccc3)c2n1 : 7

Would you be so kind as to report Ki for each listed record?
1. Nc1nc(-c2ccco2)c2ncn(C(=O)OCc3ccccc3)c2n1
2. Nc1nc(-c2ccco2)c2ncn(C(=O)NCc3ccc(Cl)c(Cl)c3)c2n1

Marked response:
1. 1
2. 5

Would you be so kind as to report Ki for each listed record?
1. Nc1nc(-c2ccco2)c2ncn(CCCc3cccnc3)c2n1
2. Cn1cnc(S(=O)(=O)Nc2ccccc2Cn2cnc3c(-c4ccco4)nc(N)nc32)c1
3. CN(C)c1nc(-c2ccco2)c2nc[nH]c2n1
4. CSc1nc(-c2ccco2)c2nc[nH]c2n1
5. Nc1nc(-c2ccco2)c2ncn(C(=O)NCc3ccc(Cl)cc3Cl)c2n1
6. Nc1nc(-c2ccco2)c2ncn(Cc3ccccc3F)c2n1
7. CN(Cc1ccccc1)C(=O)n1cnc2c(-c3ccco3)nc(N)nc21
8. Nc1nc(-c2ccco2)c2ncn(C/C=C/c3ccccc3)c2n1

Marked response:
21
4
23
12
4
4
3
12

Would you be so kind as to report Ki for each listed record?
1. Nc1nc(-c2ccco2)c2ncn(CC(=O)Nc3cccc(Cl)c3)c2n1
2. Cc1cccc(Cn2cnc3c(-c4ccco4)nc(N)nc32)c1
3. CCCCCNC(=O)n1cnc2c(-c3ccco3)nc(N)nc21

Marked response:
36
7
5

Would you be so kind as to report Ki for each listed record?
1. Nc1nc(-c2ccco2)c2ncn(Cc3cc([N+](=O)[O-])ccc3F)c2n1
2. Nc1cccc(Cn2cnc3c(-c4ccco4)nc(N)nc32)c1

Marked response:
11
24
